tested on: OVCAR-8; test: NCI tumour cell line growth inhibition, 48 h
The source made the active and inactive calls. Rule as the data show it: active = GI50 up to about 1.1 µM and inactive = higher.
A correct response names exactly one class from Yes = active, No = inactive

CC1CC/C(=C\c2ccc(F)cc2)C2=C1C(c1ccc(F)cc1)NC(=S)N2 (stereo not given)
No

From here, focus on the item given below.
Recorded test call requested for Cc1cc(Cl)ccc1NC1=NC(=O)C(CC(=O)Nc2ccc([N+](=O)[O-])cc2[N+](=O)[O-])S1 (stereo not given) No

* * *

Kindly supply the reported GI50 values for the records listed here.
system: SF-268; experiment: NCI tumour cell line growth inhibition, 48 h
Active and inactive are the calls of the source. No stated cut-off is given here; in the data, active = GI50 up to about 1.1 µM and inactive = higher. Non-standard residues stand in square brackets, D forms with d. Residues, ends and D or L forms follow the SMILES beside them. *: point of attachment. Ac5c = NC1(C(=O)O)CCCC1; Cbz = O=C(OCc1ccccc1)*; Boc = CC(C)(C)OC(=O)*; tBu = CC(C)(C)*

O=C1CC2(CCN(CC3COc4ccccc4O3)CC2)C(=O)N1N1CCCCCC1 (configuration not stated)
> 100 µM (inactive)
COC(=O)C1(NC(=O)C(Cc2ccccc2)NC(=O)C(NC(=O)C(CCCCNC(=O)OC(C)(C)C)NC(=O)C(Cc2c[nH]c3ccccc23)NC(=O)C(Cc2ccccc2)NC(=O)OCc2ccccc2)C(C)OC(C)(C)C)CCCC1 (configuration not stated) (Cbz-FWK(Boc)T(tBu)F[Ac5c]-OMe; configuration not given here)
> 100 µM (inactive)

I have 8 molecules here; please give me GI50 for each one.
1. COc1cc2c(c(OC)c1)[C@H](C)N(Cc1ccccc1)C(C)C2 (some centres not stated)
2. O=C(O)COc1ccc(C(=O)/C(SS/C(C(=O)c2ccc(OCC(=O)O)c(Cl)c2Cl)=C2\C=C(c3ccccc3Cl)SS2)=C2/C=C(c3ccccc3Cl)SS2)c(Cl)c1Cl
3. Cc1cc(N(CCC#N)CCC#N)ccc1C(/N=N/c1ccc(Cl)cc1)=N\NC(=O)c1ccccc1
4. CN(C)c1ccc(/C=C(/NC(=O)c2ccccc2)c2nc3cc(Cl)ccc3[nH]2)cc1
5. O=C1OC2C(O)COC2(O)C1(O)Cc1c[nH]c2ccccc12.O=C1OC2C(O)COC2(OCc2c[nH]c3ccccc23)C1O (configuration not stated)
6. Cn1c2ccc(C3=NCCN3)cc2c2cc(C3=NCCN3)ccc21
7. O=C(Nc1ccc(Cl)cc1)c1cc(S(=O)(=O)Nc2n[nH]c(=O)[nH]2)c(SSc2cc(Cl)c(C(=O)Nc3ccc(Cl)cc3)cc2S(=O)(=O)Nc2n[nH]c(=O)[nH]2)cc1Cl
8. COc1ccc(CCc2ccccc2CC(=O)O)cc1

1. 80.2 µM (inactive)
2. 22 µM (inactive)
3. 41.9 µM (inactive)
4. > 100 µM (inactive)
5. > 100 µM (inactive)
6. 0.0463 µM (active)
7. > 100 µM (inactive)
8. > 100 µM (inactive)

# batch: return GI50 for each of the 6 molecules below
1. NNc1nnc(-c2ccccc2)nc1Cc1ccccc1
2. CC1(C)CCC(C)(C)C1C(=O)NC(O)C(=O)O (configuration not stated)
3. C/C(=N\NC(=O)c1ccncc1)c1ccccc1Cl
4. C=C1CC(C)(COc2ccc3ccc(=O)oc3c2)OC1=O (configuration not stated)
5. O=c1c2ccccc2nc(-c2ccccc2)n1NC(=S)Nc1ccccc1
6. CC(C)(C)N/N=C(/Cc1nc2c3c(ccc2nc1O)C(=O)c1ccccc1C3=O)C(=O)NC1=C(Cl)C(=O)c2ccccc2C1=O

1. 3.64 µM (inactive)
2. > 100 µM (inactive)
3. > 100 µM (inactive)
4. 10.9 µM (inactive)
5. > 100 µM (inactive)
6. 6.97 µM (inactive)

Please supply the value of reported GI50 for the item NC(=O)c1cn(Cc2ccccc2)c(=O)n1Cc1ccccc1 > 100 µM (inactive)

* * *

tested on: BT-549; test: NCI tumour cell line growth inhibition, 48 h
Calls of active or inactive are those of the source. Cut-off read from the data, not from the text of the source: active = GI50 up to about 1.1 µM and inactive = higher.
OBSERVED PROPERTY: GI50

O=C1Nc2ccccc2/C1=N/Nc1ccccc1Cl
> 100 µM (inactive)
CC1(C)OCC2OC3([C@@H]4OC(C)(C)O[C@H]4CO)OC(C)(C)OC3C2O1 (stereo not given in full)
> 100 µM (inactive)
N#Cc1c(-c2ccc(Cl)cc2)cc(-c2nc3ccccc3[nH]2)nc1N
14.4 µM (inactive)
Cc1cc(C)c2c(c1)CC1(Cc3ccc(C)c(C)c3C1=O)C2=O (stereo not given)
> 100 µM (inactive)
C=C[C@]1(C)CC(O)C2C(=C)C(=O)OC2[C@H]1C(=C)C=O (stereo not given in full)
3.27 µM (inactive)
Cc1c(-c2ccccc2)[nH]n(C2=NCCN2)c1=O
> 100 µM (inactive)
O=C(Cn1c2ccc(Br)cc2c2nc3ccccc3nc21)NNC(=O)NC1CCCCC1
> 100 µM (inactive)
COc1cc2c(NCCCCCCO[N+](=O)[O-])ncnc2c(OC)c1OC
23.1 µM (inactive)
COc1cc(Nc2n[nH]c(NS(=O)(=O)c3cc(C)c(Cl)cc3S)n2)cc(OC)c1OC
> 100 µM (inactive)

Query compound follows.
Let me know recorded GI50 for COC(=O)C(=O)C(C(=O)C(=O)Nc1cccc(OC)c1)c1nc2ccc(Cl)cc2nc1O (stereo not given) , thanks. > 100 µM (inactive)

* * *

test system: SF-268; test: NCI tumour cell line growth inhibition, 48 h
Active and inactive are the calls of the source. No stated cut-off is given here; in the data, active = GI50 up to about 1.1 µM and inactive = higher.
OBSERVED PROPERTY: GI50

Examples with their reported GI50 follow.
O=C(O)NC(c1ccccc1)C(NC(=O)c1ccccc1)c1ccccc1 (stereo not given)
> 100 µM (inactive)
CC(=O)OCC1OC(NC(=O)N(CCCl)N=O)C(OC(C)=O)C(OC(C)=O)C1OC(C)=O (stereo not given)
> 80.9 µM (inactive)
COC(=O)[C@@]12OC[C@]34C([C@@H](O)C1O)[C@@]1(C)CC(=O)C(O)=C(C)C1C[C@H]3OC(=O)[C@H](OC(=O)/C=C(/c1ccccc1)C(F)(F)F)[C@H]42 (stereo not given in full)
8.81 µM (inactive)
CCN(CC)C(=O)CCN1CC1
> 10 µM (inactive)

In one line, give reported GI50 of the entry COC1=C(N)C(=O)c2nc(C)ccc2C1=O . 2.11 µM (inactive)

* * *

tested on: NCI-H460; assay: NCI tumour cell line growth inhibition, 48 h
Active and inactive are the calls of the source. Cut-off read from the data, not from the text of the source: active = GI50 up to about 1.1 µM and inactive = higher.
Just give me one of these, please: active, inactive

Field: outcome | Entry: COc1cc([C@@H]2c3cc4c(cc3[C@@H](NCc3cccc(C#N)c3)C3COC(=O)[C@@H]32)OCO4)cc(OC)c1O (stereo not given in full) active

Short answer needed: outcome of this test for c1cc2c(s1)-c1sccc1C21OCCO1 ? inactive

What did the test return for C=C1C(=O)O[C@H]2C1C[C@H](O)[C@@]1(C)OC1CC[C@@]1(C)O[C@H]21 (stereo not given in full) ? inactive

Test call for this compound, please: CCOC(=O)C1C(=O)CC(O)(c2ccccc2)C(C(=O)OCC)C1c1ccc(N(C)C)cc1 (stereo not given) inactive

Dear colleague, could you share the recorded outcome for CC(C)C(C/C=C1\CC(CO)(COC(=O)c2ccccc2)OC1=O)C(C)C (stereo not given) when you have a moment? inactive

* * *

test system: SK-MEL-5; experiment: NCI tumour cell line growth inhibition, 48 h
Calls of active or inactive are those of the source. Rule as the data show it: active = GI50 up to about 1.1 µM and inactive = higher.
Pick one and only one: 1.0 (active), 0.0 (inactive)

CN(C)CCCCN1CCc2c(n(C)c3ccccc23)C1=O
0.0
O=CNCCCN1CCN(CCCNC=O)CC1
0.0
CC1CC/C(=C\c2ccc(F)cc2)C2=C1C(c1ccc(F)cc1)NC(=S)N2 (stereo not given)
0.0

For C[C@@H]1C[C@H](O)[C@]2(O)O[C@@H]3C[C@@]4(C=O)[C@@H](CC[C@@H]5[C@@H]4CC[C@]4(C)[C@@H](C6=CC(=O)OC6)CC[C@]54O)C[C@H]3O[C@@H]2O1 , what call appears in the results of this test? 1.0

What did this assay record as the result for CC(=O)c1ccc(NCN2C(=O)c3ccccc3C2=O)cc1 ? 0.0

# outcome recorded in this test, key = CCOP(=O)(O)CN1CCNCCN(CP(=O)(O)OCC)CCNCC1 0.0

What did this assay record as the result for CC1SC2=NC3=C(c4ccccc4C3=O)C(c3ccc(F)cc3)N2C1=O (stereo not given) ? 0.0

Which outcome was assigned to COc1cc2c(NCCCCCCO[N+](=O)[O-])ncnc2c(OC)c1OC in this test? 0.0

Record request — test call for Cn1cc(S(=O)(=O)NC(=O)Nc2ccc(Cl)cc2)c2ccccc21 0.0

Test call for this molecule, please: Cc1cc(C)c2c(c1)CC1(Cc3ccc(C)c(C)c3C1=O)C2=O (stereo not given) 0.0

* * *

system: SF-539; assay: NCI tumour cell line growth inhibition, 48 h
Active and inactive are the calls of the source. Cut-off read from the data, not from the text of the source: active = GI50 up to about 1.1 µM and inactive = higher.
Classes to choose from: active, inactive

Below are worked cases with known answers.
CC(C)CC(C(N)=O)C(=O)NC(Cc1ccccc1)NC(=O)CNC(=O)C(C)NC(=O)C(N)Cc1ccc(O)cc1 (centres undefined)
inactive
CC(=O)OC(C)(C)/C=C/C(=O)[C@](C)(O)[C@H]1[C@H](O)C[C@@]2(C)[C@@H]3CC=C4[C@@H](C=C(O)C(=O)C4(C)C)[C@]3(C)C(=O)C[C@]12C
active
CC1SC2=NC3=C(c4ccccc4C3=O)C(c3ccc(F)cc3)N2C1=O (centres undefined)
inactive
O=C(CCC(=O)Nc1cccc(Cl)c1)CC(=O)c1ccc(F)cc1
inactive
O=[N+]([O-])c1ccc(-c2cn(-c3ccc(Cl)cc3)cn2)cc1
inactive
COc1cc2ccc(C(=O)O)cc2cc1OC
inactive

Could you kindly confirm the outcome this assay logged for CC(C)c1ccc(Cc2ccc(C(C)C)c(NC(=O)C(=O)Cc3cnc4ccccc4n3)c2C(C)C)c(C(C)C)c1NC(=O)C(=O)Cc1cnc2ccccc2n1 ? inactive

Could you kindly confirm the outcome this assay logged for COc1cc(Nc2n[nH]c(NS(=O)(=O)c3cc(C)c(Cl)cc3S)n2)cc(OC)c1OC ? inactive

Outcome logged for COc1cc2ccccc2c2cc([N+](=O)[O-])oc12 in this assay: active
